Data provenance: ChEMBL document CHEMBL4699451

- assay-summary: Half life in rat at 1 mg/kg, iv
- Type: ADME, organism-based
- assay-conditions: in vivo
observed-property: half-life (h)

molecular-string | result-value
Cc1cc(-c2ccnc(Nc3cnn(C)c3)n2)ccc1CNC(=O)N1CC(OC(C)C)C1 | 1.2

###

- system-under-test: Cytochrome P450 2D6 (Homo sapiens, UniProt P10635)
- Sequence (P10635 whole entry): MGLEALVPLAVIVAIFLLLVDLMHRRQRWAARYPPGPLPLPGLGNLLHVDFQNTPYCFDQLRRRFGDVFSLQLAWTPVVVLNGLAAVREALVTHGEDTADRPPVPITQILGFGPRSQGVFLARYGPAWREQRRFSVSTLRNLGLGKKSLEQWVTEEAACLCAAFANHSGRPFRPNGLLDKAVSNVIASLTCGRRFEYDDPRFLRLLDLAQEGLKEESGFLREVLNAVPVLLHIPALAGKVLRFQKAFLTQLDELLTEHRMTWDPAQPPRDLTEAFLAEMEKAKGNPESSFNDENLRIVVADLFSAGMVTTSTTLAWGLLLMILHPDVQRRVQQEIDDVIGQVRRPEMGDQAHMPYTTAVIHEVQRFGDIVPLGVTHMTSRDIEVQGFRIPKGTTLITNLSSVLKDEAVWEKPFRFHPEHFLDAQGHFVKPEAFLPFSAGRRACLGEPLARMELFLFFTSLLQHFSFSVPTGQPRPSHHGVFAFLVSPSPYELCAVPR

molecular-string | system-under-test | IC50
Cc1cc(-c2ccnc(Nc3cnn(C)c3)n2)ccc1CNC(=O)N1CC(OC(C)C)C1 | Cytochrome P450 2D6 (Homo sapiens, UniProt P10635) | > 25 µM

###

- system-under-test: Voltage-gated inwardly rectifying potassium channel KCNH2 (Homo sapiens, UniProt Q12809)
- Sequence (Q12809 whole entry): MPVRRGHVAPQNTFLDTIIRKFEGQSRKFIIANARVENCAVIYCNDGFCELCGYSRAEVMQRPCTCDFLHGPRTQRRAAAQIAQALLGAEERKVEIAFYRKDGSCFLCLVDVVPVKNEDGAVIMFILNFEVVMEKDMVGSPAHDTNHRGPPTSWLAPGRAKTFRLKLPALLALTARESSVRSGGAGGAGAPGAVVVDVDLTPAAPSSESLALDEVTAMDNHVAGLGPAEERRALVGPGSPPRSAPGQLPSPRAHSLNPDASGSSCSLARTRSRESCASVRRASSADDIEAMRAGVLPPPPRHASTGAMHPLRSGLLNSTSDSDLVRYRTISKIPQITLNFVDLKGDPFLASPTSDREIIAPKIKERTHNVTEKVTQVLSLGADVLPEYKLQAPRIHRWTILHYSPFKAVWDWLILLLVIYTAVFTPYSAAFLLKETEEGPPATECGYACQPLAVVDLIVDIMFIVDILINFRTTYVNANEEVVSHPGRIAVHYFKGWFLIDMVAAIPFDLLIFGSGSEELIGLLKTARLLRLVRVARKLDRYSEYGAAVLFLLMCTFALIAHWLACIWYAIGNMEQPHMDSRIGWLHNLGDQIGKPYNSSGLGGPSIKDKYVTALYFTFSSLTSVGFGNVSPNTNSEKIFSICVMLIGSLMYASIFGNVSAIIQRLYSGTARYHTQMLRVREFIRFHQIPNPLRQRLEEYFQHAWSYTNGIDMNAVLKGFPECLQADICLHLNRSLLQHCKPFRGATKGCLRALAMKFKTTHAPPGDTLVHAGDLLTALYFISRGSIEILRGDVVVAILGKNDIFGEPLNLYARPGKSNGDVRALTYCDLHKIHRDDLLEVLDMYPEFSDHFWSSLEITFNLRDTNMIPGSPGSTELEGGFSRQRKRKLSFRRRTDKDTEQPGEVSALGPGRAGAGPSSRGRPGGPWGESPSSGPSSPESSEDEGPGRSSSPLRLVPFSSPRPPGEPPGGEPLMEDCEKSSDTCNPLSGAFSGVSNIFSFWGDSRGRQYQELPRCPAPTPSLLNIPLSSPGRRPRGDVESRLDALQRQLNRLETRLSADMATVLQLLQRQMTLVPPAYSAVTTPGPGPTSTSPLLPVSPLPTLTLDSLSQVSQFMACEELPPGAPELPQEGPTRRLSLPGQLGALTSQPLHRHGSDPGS
- assay-summary: Inhibition of human ERG by automated patch-clamp assay
pIC50: −log10 of the molar value.

molecular-string | pIC50
Cc1cc(-c2ccnc(Nc3cnn(C)c3)n2)ccc1CNC(=O)N1CC(OC(C)C)C1 | < 4.30

###

- assay-summary: Half life in dog at 1 mg/kg, iv
- Format: ADME, organism-based, Canis lupus familiaris
- assay-conditions: in vivo

molecular-string | half-life
Cc1cc(-c2ccnc(Nc3cnn(C)c3)n2)ccc1CNC(=O)N1CC(OC(C)C)C1 | 2.1 h

###

- system-under-test: Tyrosine-protein kinase BTK (Mus musculus, UniProt P35991)
- Sequence (P35991 whole entry): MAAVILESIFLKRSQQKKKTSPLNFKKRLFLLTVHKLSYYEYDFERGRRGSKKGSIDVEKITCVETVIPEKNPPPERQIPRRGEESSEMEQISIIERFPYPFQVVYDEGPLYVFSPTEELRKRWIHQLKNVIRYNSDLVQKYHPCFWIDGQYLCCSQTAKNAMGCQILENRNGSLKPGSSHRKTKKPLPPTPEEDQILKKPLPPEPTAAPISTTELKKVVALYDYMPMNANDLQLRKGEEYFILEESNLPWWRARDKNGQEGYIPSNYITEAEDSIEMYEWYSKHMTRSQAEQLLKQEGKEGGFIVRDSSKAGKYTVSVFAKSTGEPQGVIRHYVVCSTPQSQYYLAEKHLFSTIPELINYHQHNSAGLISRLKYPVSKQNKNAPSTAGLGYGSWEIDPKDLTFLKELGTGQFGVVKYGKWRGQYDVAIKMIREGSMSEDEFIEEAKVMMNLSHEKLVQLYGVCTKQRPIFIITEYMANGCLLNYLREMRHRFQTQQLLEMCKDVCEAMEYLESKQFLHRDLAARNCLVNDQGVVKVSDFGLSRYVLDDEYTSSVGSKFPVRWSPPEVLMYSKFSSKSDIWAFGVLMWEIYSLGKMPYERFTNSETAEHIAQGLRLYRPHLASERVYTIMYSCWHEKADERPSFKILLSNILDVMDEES
- assay-summary: In vivo inhibition of BTK in TI-2 antigen/ NP-Ficoll-induced DBA1 mouse immunized model assessed as reduction in BTK phosphorylation administered orally twice daily for 10 days measured post last dose
- Assay type: functional, organism-based

molecular-string | system-under-test | measure-unit | IC50
Cc1cc(-c2ccnc(Nc3cnn(C)c3)n2)ccc1CNC(=O)N1CC(OC(C)C)C1 | Tyrosine-protein kinase BTK (Mus musculus, UniProt P35991) | nM | 130

###

- system-under-test: Tyrosine-protein kinase BTK (Homo sapiens, UniProt Q06187)
- Sequence (Q06187 whole entry): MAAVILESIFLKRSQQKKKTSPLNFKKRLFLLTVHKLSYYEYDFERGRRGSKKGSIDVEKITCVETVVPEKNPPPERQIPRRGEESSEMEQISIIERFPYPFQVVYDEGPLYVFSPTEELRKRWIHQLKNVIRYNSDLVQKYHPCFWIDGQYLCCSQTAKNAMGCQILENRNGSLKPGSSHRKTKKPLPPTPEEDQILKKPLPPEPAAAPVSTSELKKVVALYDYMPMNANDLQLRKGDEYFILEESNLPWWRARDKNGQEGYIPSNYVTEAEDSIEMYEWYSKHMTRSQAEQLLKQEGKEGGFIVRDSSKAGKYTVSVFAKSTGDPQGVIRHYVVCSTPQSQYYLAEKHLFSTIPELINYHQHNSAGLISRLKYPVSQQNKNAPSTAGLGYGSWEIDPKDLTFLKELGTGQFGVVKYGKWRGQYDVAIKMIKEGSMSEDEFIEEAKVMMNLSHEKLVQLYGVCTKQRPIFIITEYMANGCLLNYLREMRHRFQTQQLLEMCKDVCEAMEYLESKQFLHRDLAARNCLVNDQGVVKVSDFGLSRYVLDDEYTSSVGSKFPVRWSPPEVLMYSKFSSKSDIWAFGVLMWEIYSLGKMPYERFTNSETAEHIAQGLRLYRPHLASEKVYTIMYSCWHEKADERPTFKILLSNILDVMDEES
- assay-summary: Inhibition of recombinant human full-length N-terminal His6-tagged BTK expressed in baculovirus infected Sf21 insect cells using fluorescein-labeled polyGAT peptide substrate measured after 30 mins by TR-FRET assay
Readings of IC50 for the listed molecules
observed-property: IC50 (nM)

molecular-string | result-value
Cc1nnc(Nc2nccc(-c3ccc(CNC(=O)c4cnc(C(C)(C)C)s4)c(C)c3)n2)s1 | 40
Cc1cc(-c2ccnc(Nc3cnn(C)c3)n2)ccc1CNC(=O)N1CC(CC(C)C)C1 | 0.4
Cc1cc(-c2ncnc3[nH]ccc23)ccc1CNC(=O)c1ccc(C(C)(C)C)cc1 | 5
Cc1cc(-c2ccnc(Nc3cn(C)nn3)n2)ccc1CNC(=O)c1cnc(C(C)(C)C)s1 | 10
Cc1cc(-c2ncnc3[nH]ccc23)ccc1CNC(=O)c1cnc(C(C)(C)C)s1 | 3
Cc1cc(-c2ccnc(Nc3ccccc3)n2)ccc1CNC(=O)c1cnc(C(C)(C)C)s1 | 1.8

###

- assay-summary: Lipophilicity, log D of compound by UV-HPLC method
- Type: physicochemical
observed-property: logD

molecular-string | observed-property | result-value
Cc1cc(-c2ccnc(Nc3cnn(C)c3)n2)ccc1CNC(=O)c1cnc(C(C)(C)C)s1 | logD | 4.76
Cc1cc(-c2ccnc(Nc3cn(C)nn3)n2)ccc1CNC(=O)c1cnc(C(C)(C)C)s1 | logD | 2.79
Cc1cc(-c2ccnc(N)n2)ccc1CNC(=O)c1cnc(C(C)(C)C)s1 | logD | 4.04
CC(C)(C)c1ccc(C(=O)NCc2ccc(-c3ncnc4[nH]ccc34)cc2)cc1 | logD | 4.95
Cc1cc(-c2ccnc(Nc3cnn(C)c3)n2)ccc1CNC(=O)c1nnc(C(C)(C)C)s1 | logD | 3.01
CC(C)(C)c1ccc(C(=O)NCc2ccc(-c3ncnc4[nH]ccc34)cc2C(N)=O)cc1 | logD | 1.99
CC(C)(C)c1ccc(C(=O)NCc2ccc(-c3ncnc4[nH]ccc34)cc2C(F)(F)F)cc1 | logD | 2.43
Cc1cc(-c2ncnc3[nH]ccc23)ccc1CNC(=O)c1ccc(C(C)(C)C)cc1 | logD | 5.18
Cc1cc(-c2ccnc(Nc3ccncc3)n2)ccc1CNC(=O)c1cnc(C(C)(C)C)s1 | logD | 2.94
Cc1cc(-c2ncnc3[nH]ccc23)ccc1CNC(=O)c1cnc(C(C)(C)C)s1 | logD | 4.35
Cc1cc(-c2ccnc(Nc3conc3C)n2)ccc1CNC(=O)c1cnc(C(C)(C)C)s1 | logD | 2.97
Cc1cc(-c2ccnc(Nc3cnn(C)c3)n2)ccc1CNC(=O)N1CC(OC(C)C)C1 | logD | 2.32
Cc1nnc(Nc2nccc(-c3ccc(CNC(=O)c4cnc(C(C)(C)C)s4)c(C)c3)n2)s1 | logD | 2.07
Cc1cc(-c2ccnc(Nc3ccn(C)n3)n2)ccc1CNC(=O)c1cnc(C(C)(C)C)s1 | logD | 3.47
Cc1cc(-c2ccnc(Nc3cnn(C)c3)n2)ccc1CNC(=O)N1CC(CC(C)C)C1 | logD | 3.34
CCc1cc(-c2ncnc3[nH]ccc23)ccc1CNC(=O)c1ccc(C(C)(C)C)cc1 | logD | 2.35
Cc1cc(-c2ccnc(Nc3ccccc3)n2)ccc1CNC(=O)c1cnc(C(C)(C)C)s1 | logD | 3.44

###

Readings of hepatic extraction ratio for the listed compounds
- assay-summary: Clearance in human liver microsomes relative to hepatic blood flow
- Assay type: ADME, Microsome
- assay-conditions: read-out: CLH

compound | hepatic extraction ratio
Cc1cc(-c2cc(N)ncn2)ccc1CNC(=O)c1cnc(C(C)(C)C)s1 | 0.53
Cc1cc(-c2ccnc(Nc3cnn(C)c3)n2)ccc1CNC(=O)N1CC(CC(C)C)C1 | 0.08
Cc1cc(-c2ccnc(Nc3cnn(C)c3)n2)ccc1CNC(=O)C1CCC(C(C)(C)C)C1 (stereo unspecified) | 0.14
Cc1cc(-c2ccnc(N)n2)ccc1CNC(=O)c1cnc(C(C)(C)C)s1 | 0.56
Cc1cc(-c2ccnc(Nc3cnn(C)c3)n2)ccc1CNC(=O)c1cnc(C(C)(C)C)s1 | 0.02
Cc1cc(-c2ncnc3[nH]ccc23)ccc1CNC(=O)c1cnc(C(C)(C)C)s1 | 0.64
